- tgt: Ephrin type-B receptor 4 (Homo sapiens) (UniProt P54760)
- Sequence (P54760 whole entry): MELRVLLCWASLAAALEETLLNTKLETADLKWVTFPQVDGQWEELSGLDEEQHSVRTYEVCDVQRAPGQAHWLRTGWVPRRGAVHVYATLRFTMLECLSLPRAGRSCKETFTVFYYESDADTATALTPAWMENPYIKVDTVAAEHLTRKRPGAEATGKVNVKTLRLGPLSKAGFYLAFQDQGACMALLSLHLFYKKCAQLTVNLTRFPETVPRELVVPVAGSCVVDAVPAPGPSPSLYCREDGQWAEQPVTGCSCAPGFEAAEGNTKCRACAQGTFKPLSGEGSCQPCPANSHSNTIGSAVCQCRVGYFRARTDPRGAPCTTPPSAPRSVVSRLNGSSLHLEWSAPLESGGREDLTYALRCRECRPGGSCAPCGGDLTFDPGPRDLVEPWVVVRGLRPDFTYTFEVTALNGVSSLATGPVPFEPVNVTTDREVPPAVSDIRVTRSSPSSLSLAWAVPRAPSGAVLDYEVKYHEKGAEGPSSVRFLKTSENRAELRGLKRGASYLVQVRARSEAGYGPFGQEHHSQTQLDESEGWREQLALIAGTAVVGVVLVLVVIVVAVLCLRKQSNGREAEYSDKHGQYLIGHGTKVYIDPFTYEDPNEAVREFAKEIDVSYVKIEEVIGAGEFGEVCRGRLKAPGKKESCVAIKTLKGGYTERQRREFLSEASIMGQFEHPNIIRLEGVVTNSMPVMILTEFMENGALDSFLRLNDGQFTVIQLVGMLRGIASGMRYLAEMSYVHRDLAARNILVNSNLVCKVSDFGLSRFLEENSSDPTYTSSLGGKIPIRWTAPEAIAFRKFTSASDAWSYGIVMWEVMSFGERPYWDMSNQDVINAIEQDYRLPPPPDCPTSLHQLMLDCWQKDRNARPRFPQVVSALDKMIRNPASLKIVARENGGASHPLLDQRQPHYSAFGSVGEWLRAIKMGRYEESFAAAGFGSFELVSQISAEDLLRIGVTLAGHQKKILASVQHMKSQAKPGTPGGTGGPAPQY
- condition-label: at 1 µM;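 also: reported value is the mean percent inhibition of EPHB4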
Recorded inhibition by entry
Value expressed in %; do not type the unit.

Worked cases, inhibition given:
# compound, unit-string, inhibition
data = [
    ("COC(=O)Nc1nc2ccc(Oc3ccc(NC(=O)Nc4cc(C(F)(F)F)ccc4F)cc3)cc2s1", "%", 73),
    ("COc1ccc(Nc2ncc(-c3ccccc3)o2)cc1OC", "%", 6.24),
    ("CNC(=O)c1sc(-n2cnc3cc(OC)c(OC)cc32)cc1OCc1ccccc1C(F)(F)F", "%", 5.78),
    ("CS(=O)(=O)CCNCc1ccoc1-c1ccc2ncnc(Nc3ccc(OCc4ccccc4)cc3)c2c1", "%", 1.51),
    ("O=C(O[C@H]1CN[C@H](C#Cc2cc3ncnc(Nc4ccc5c(cnn5Cc5ccccc5)c4)c3s2)C1)N1CCOCC1", "%", 0.96),
]

input: What measured inhibition goes with CC1(C)CC(n2cnc(-c3ccc(F)cc3)c2-c2ccnc(N)n2)CC(C)(C)N1 ?
output: 0.62

input: I'd like to know its inhibition. The compound in question is NS(=O)(=O)c1ccc(N/N=C2\C(=O)Nc3cccc(CCc4ccncc4)c32)cc1
output: 0.87

input: Please look up its inhibition: CCN1CCC(C(=O)Nc2n[nH]c3nnc(-c4cccc(F)c4F)cc23)CC1
output: -0.12

input: I would be grateful if you could share the reported inhibition for COc1ccc2ncn(-c3cc(O[C@H](C)c4ccccc4C(F)(F)F)c(C(N)=O)s3)c2c1 .
output: 1.77

input: Which inhibition value belongs to O=C(Nc1n[nH]c2nnc(-c3cccnc3)cc12)C1CC1 ?
output: 0.6
